For MMP-2 (Homo sapiens, UniProt P08253), measured pIC50 is reported for the entries below.
pIC50: −log10 of the molar value.
Property Label: pIC50

(P) O=C(O)[C@H]1[C@H](Cn2nnc3ccc(C(F)(F)F)cc3c2=O)CC[C@@H]1C(=O)c1ccc(OCc2cccc(C(F)(F)F)c2)cc1 (racemic)
(Q) O=C(O)[C@H]1[C@H](Cn2nnc3ccccc3c2=O)CC[C@@H]1C(=O)c1ccc(OCCC2CCCCC2)cc1 (racemic)
(R) Cc1cccc(COc2ccc(C(=O)[C@H]3CC[C@@H](Cn4nnc5ccc(C(F)(F)F)cc5c4=O)[C@@H]3C(=O)O)cc2)c1 (racemic)
(S) O=C(O)[C@H]1[C@H](Cn2nnc3ccccc3c2=O)CC[C@@H]1C(=O)c1ccc(OCc2ccc(F)cc2)cc1 (racemic)
(T) Cc1ccc2nnn(C[C@H]3CC[C@@H](C(=O)c4ccc(OCc5ccccc5)cc4)[C@@H]3C(=O)O)c(=O)c2c1 (single isomer, unassigned)
Rank the 5 molecules: largest pIC50 first, smallest last. Answer by naming the labels in the order asked. S, T, Q, R, P

(a) Cc1ccc2nnn(C[C@H]3CC[C@@H](C(=O)c4ccc(OCc5cccc(Cl)c5)cc4)[C@@H]3C(=O)O)c(=O)c2c1 (single isomer, unassigned)
(b) O=C(O)[C@H]1[C@H](Cn2nnc3ccc(C(F)(F)F)cc3c2=O)CC[C@@H]1C(=O)c1ccc(OCC2CCCCC2)cc1 (racemic)
(c) O=C(O)[C@@H]1[C@@H](Cn2nnc3ccc(C(F)(F)F)cc3c2=O)CC[C@H]1C(=O)c1ccc(OCCC2CCCC2)cc1 (single isomer, unassigned)
Ascending by pIC50, please. Could you list the labels in the order requested? c, b, a
(c: 5.89, b: 6.36, a: 6.66)
